Attribute: pIC50
Target: Non-receptor tyrosine-protein kinase TYK2 (Homo sapiens, UniProt P29597)
Sequence (P29597 whole entry): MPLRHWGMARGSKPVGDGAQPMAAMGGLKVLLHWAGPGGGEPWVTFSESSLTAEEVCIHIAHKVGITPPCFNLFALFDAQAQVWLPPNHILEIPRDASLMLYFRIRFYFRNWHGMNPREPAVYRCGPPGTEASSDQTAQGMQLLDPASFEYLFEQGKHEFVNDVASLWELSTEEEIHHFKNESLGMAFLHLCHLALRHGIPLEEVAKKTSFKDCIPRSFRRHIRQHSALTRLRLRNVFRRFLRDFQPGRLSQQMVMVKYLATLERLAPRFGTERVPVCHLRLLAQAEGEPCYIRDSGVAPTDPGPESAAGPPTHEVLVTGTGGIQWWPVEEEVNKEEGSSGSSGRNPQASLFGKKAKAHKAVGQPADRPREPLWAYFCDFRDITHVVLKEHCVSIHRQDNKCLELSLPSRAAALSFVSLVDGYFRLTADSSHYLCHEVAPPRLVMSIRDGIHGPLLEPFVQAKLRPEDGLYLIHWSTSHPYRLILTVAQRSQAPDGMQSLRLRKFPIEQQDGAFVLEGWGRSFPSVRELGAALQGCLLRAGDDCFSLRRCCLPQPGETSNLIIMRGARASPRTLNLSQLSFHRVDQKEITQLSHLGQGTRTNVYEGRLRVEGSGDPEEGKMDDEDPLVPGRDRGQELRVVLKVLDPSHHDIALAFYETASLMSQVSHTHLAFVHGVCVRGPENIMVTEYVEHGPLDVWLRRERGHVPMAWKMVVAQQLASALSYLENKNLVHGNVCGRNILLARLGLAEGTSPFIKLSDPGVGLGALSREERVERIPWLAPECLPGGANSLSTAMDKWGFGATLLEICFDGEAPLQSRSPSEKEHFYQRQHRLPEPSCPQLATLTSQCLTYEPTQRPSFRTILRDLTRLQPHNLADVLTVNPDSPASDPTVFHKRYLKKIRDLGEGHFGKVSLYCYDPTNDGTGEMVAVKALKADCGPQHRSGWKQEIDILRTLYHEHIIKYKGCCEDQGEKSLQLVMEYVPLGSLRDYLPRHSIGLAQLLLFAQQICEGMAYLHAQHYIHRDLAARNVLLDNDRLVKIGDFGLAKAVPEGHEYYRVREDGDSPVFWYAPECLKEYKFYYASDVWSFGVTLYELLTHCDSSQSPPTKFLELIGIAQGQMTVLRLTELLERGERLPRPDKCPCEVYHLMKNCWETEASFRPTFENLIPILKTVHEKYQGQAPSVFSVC
Value format note: pIC50 is -log10 of concentration (mol/L); just state the number.

In the examples that follow, each entry is paired with its recorded pIC50.
CN(c1ccc(O)cc1CNc1nc(-c2cc(F)c(O)cc2CC(F)(F)F)nc2[nH]nc(C(=O)Nc3ccc(NCCO)nc3)c12)S(C)(=O)=O    6.51
CCN(c1ccc(O)cc1CNc1nc(-c2cc(F)c(O)cc2CC(F)(F)F)nc2[nH]nc(C(=O)NC)c12)S(=O)(=O)c1ccccc1    5.71
CN(c1ccc(O)cc1CNc1nc(-c2cc(F)c(O)cc2CC(F)(F)F)nc2[nH]nc(C(N)=O)c12)S(=O)(=O)c1ccccc1    5.76
CNC(=O)c1n[nH]c2nc(-c3cc(F)c(O)cc3CC(F)(F)F)nc(NCc3ccccc3N(CCO)S(C)(=O)=O)c12    5.94
CC(=O)N1CCc2[nH]c(-c3n[nH]c4nc(-c5cc(F)c(O)cc5CC(F)(F)F)nc(NCc5cc(O)ccc5N(C)S(C)(=O)=O)c34)nc2C1    7.85

Exercise: pIC50 lookup needed for CCN(c1ccc(O)cc1CNc1nc(-c2cc(F)c(O)cc2CC(F)(F)F)nc2[nH]nc(C(N)=O)c12)S(=O)(=O)c1ccccc1 , thanks.
Solution: 5.66

Exercise: Also, CN(c1ccc(O)cc1CNc1nc(-c2cc(F)c(O)cc2CC(F)(F)F)cc2[nH]nc(C(=O)Nc3ccc(NCCO)nc3)c12)S(C)(=O)=O please.
Solution: 7.62

Exercise: Item: CNC(=O)c1n[nH]c2nc(-c3cc(F)c(O)cc3CC(F)(F)F)nc(NCc3nccnc3N(C)S(C)(=O)=O)c12
Solution: 5.21

----------
Molecular target: Tyrosine-protein kinase JAK3 (Homo sapiens)
Sequence (P52333 whole entry): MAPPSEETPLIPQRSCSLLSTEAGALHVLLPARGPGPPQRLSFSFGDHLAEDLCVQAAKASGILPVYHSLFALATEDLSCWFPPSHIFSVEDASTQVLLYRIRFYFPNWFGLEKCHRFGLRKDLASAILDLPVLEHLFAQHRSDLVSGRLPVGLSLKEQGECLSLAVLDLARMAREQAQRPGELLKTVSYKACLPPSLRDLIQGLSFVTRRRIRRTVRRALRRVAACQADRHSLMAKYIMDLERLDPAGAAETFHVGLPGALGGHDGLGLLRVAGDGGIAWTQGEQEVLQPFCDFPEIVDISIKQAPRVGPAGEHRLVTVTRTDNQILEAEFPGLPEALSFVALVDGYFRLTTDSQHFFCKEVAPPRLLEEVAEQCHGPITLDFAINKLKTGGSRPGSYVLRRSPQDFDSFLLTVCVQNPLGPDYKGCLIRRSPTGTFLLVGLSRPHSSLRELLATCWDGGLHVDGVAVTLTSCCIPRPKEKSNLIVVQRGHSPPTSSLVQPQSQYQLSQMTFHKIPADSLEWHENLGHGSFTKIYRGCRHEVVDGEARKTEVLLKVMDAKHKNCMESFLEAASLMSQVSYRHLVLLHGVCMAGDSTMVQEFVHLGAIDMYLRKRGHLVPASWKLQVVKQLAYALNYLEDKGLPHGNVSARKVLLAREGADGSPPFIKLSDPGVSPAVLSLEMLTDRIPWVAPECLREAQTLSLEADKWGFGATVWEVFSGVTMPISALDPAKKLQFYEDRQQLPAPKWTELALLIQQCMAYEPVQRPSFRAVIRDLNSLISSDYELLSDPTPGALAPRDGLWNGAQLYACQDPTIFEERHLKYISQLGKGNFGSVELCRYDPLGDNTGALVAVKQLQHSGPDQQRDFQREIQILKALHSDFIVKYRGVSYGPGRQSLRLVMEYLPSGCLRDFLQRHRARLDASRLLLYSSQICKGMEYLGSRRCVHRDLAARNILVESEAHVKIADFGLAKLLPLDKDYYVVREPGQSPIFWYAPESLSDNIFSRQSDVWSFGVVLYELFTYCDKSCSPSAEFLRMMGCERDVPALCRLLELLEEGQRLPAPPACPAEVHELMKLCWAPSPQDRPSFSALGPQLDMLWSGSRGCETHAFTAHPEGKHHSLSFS
Experiment: JAK Caliper Enzyme Assay at 1 mM ATP
Details: pH 7.4; 25 °C
PARAMETER: pIC50
Recall that pIC50 is obtained by taking minus log10 of the concentration measured in molar.

Exercise: Can you share its pIC50? I mean this compound: CN(c1ccc(O)cc1CNc1nc(-c2cc(F)c(O)cc2CC(F)(F)F)nc2[nH]nc(C(=O)Nc3ccc(NCCO)nc3)c12)S(C)(=O)=O [US10022376, Example 169]
Solution: 7.22

Exercise: Request: CC(=O)N1CCc2[nH]c(-c3n[nH]c4nc(-c5cc(F)c(O)cc5CC(F)(F)F)nc(NCc5cc(O)ccc5N(C)S(C)(=O)=O)c34)nc2C1 [US10022376, Example 105]
Solution: 7.29

Exercise: Lookup CCN(c1ccc(O)cc1CNc1nc(-c2cc(F)c(O)cc2CC(F)(F)F)nc2[nH]nc(C(=O)NC)c12)S(=O)(=O)c1ccccc1 [US10022376, Example 75]
Solution: 6.12

Exercise: Check CN(c1ccc(O)cc1CNc1nc(-c2cc(F)c(O)cc2CC(F)(F)F)cc2[nH]nc(C(=O)Nc3ccc(NCCO)nc3)c12)S(C)(=O)=O [US10022376, Example 164] too.
Solution: 7.04

Exercise: Try the compound CN(c1ccc(O)cc1CNc1nc(-c2cc(F)c(O)cc2CC(F)(F)F)nc2[nH]nc(C(N)=O)c12)S(=O)(=O)c1ccccc1 [US10022376, Example 96]
Solution: 6.61

Where do these numbers come from? They come from BindingDB's records for patent US10022376.
